All figures here come from PubChem BioAssay (NCI).

Assignment: determine reported GI50 for the given molecules.
system: OVCAR-3 ovarian; experiment: NCI tumour cell line growth inhibition, 48 h

Solved cases (2 shown):
molecule="Cc1c(N)nc(C(CC(N)=O)NCC(N)C(N)=O)nc1C(=O)NC(C(=O)NC(C)C(O)C(C)C(=O)NC(C(=O)NCCc1nc(-c2nc(C(=O)NCCCNCCCCN)cs2)cs1)C(C)O)C(OC1OC(CO)C(O)C(O)C1OC1OC(CO)C(O)C(OC(N)=O)C1O)c1cnc[nH]1 (configuration not stated)" recorded_metric=GI50 result="7.69 µg/mL"
molecule=O=C(O)c1ccc2cccnc2c1O recorded_metric=GI50 result="1680 nM"

Give measured GI50 for every item shown.
1. N#C/C(=C\c1cccnc1)c1nc2ccccc2o1
2. C=C1C(=O)O[C@H]2[C@H]1CC/C(COC(=O)/C=C/c1c[nH]c3ccccc13)=C\CC[C@@]1(C)O[C@@H]21
3. Brc1ccc2c(c1)c(-c1nc(-c3c[nH]c4ncccc34)cs1)cn2CCCN1CCCCC1

["> 100000 nM", "173 nM", "1890 nM"]

Each of the following entries comes with a recorded value; kindly state GI50 for each.
1. Cc1nn2c(/C=C3\C(=O)Nc4ccccc43)c(C)nc2s1
2. Cc1ccc2cnc(N)c(C#Cc3cncc(C(=O)Nc4ccc(CN5CCN(C)CC5)c(C(F)(F)F)c4)c3)c2c1

["35600 nM", "633 nM"]

* * *

test system: UACC-257 melanoma; assay: NCI tumour cell line growth inhibition, 48 h
Recorded Metric: TGI

compound=CN(C)c1ccc(N=C(C#N)c2nc(N)nc(N3CCN(c4ccccc4)CC3)n2)cc1 tested_system="UACC-257 melanoma" result="> 44.2 µM"
compound="CCOC(=O)NC(=O)c1cn(C2OC(CO)C(O)C2O)c(=O)[nH]c1=O (stereo not given)" tested_system="UACC-257 melanoma" result="> 100 µM"
compound=COc1ccc(/C=C/c2cnc3ccccc3n2)cc1OC tested_system="UACC-257 melanoma" result="> 100 µM"
compound="CC(=O)O[C@H]1C(=O)[C@@]2(C)C(C(OC(=O)c3ccccc3)[C@]3(O)CC(OC(=O)C(O)C(NC(=O)c4ccccc4)c4ccc(C)cc4)C(C)=C1C3(C)C)[C@]1(OC(C)=O)CO[C@@H]1C[C@@H]2O (stereo not given in full)" tested_system="UACC-257 melanoma" result="> 25 µM"

# evaluate next
// Input: COc1ccccc1N1C(=O)/C(=C\c2cccc(Oc3ccccc3)c2)S(=O)(=O)C1c1ccccc1 (stereo not given) . Output its TGI only.
> 100 µM

* * *

Assignment: determine reported TGI for the given molecules.
system: HT29 colon; assay: NCI tumour cell line growth inhibition, 48 h

The cases that follow already have their TGI on record.
record_smiles=O=C(Nc1ccccc1C(=O)Nc1nccs1)c1ccccc1 tested_system="HT29 colon" result="> 100 µM"
record_smiles=N#Cc1c(NCc2ccccc2)nc(NCc2ccccc2)c(C#N)c1-c1cccc(O)c1 tested_system="HT29 colon" result="> 100 µM"
record_smiles=CC(=O)Nc1ccc(/C=C(\NC(=O)c2ccccc2)C(=O)NNS(=O)(=O)c2ccc(C)cc2)cc1 tested_system="HT29 colon" result="> 100 µM"
record_smiles=CCOC(=O)/C(C#N)=C(N)/C(=N\Nc1cccc(C(F)(F)F)c1)C(=O)OCC tested_system="HT29 colon" result="> 100 µM"
record_smiles=O=c1/c(=C/c2ccc(-c3ccc(Cl)cc3Cl)o2)sc2n1[C@@H](c1ccc3c(c1)OCO3)C=C(c1cc(F)c(Cl)cc1Cl)N=2 tested_system="HT29 colon" result="74.7 µM"
record_smiles=C/C(=C\c1ccccc1)C(=O)NCc1ccc(C(=O)NCCc2c[nH]c3ccccc23)cc1 tested_system="HT29 colon" result="> 100 µM"

Batch request: TGI per item, same order as input.
1. O=C(NCCCCNCCCNC(=O)OCc1ccccc1)OCc1ccccc1
2. CC1(C)O[C@@H](CP(c2cccc3ccccc23)c2cccc3ccccc23)[C@H](CP(c2cccc3ccccc23)c2cccc3ccccc23)O1
3. Cc1ccc(S(=O)(=O)c2ccsc2N)cc1

1. 37.7 µM
2. > 100 µM
3. > 100 µM
